Known Biodistribution: Lung of a selection of molecules
Assay: In vivo biodistribution in mice
Set-up: species or system normal CD-1 male mice
Conditions: iv, 120 min post injection
Description: Biodistribution experiments were performed by intravenously administering ^68Ga labeled 1a-h, 2, 3, BPAMD, and [^18F]NaF into normal, healthy male CD-1 mice (25-30 g). The injection activity was 20-30 μCi/animal. […] Organs of interest were harvested, weighed, and counts of radioactivity were measured by a gamma counter. The biodistribution of each sample was calculated as a percentage of the injected dose per gram of wet tissue weight (% ID/g). […]

Past entries and their recorded results:
Molecule: O=C([O-])CN(CCN(CC(=O)[O-])Cc1cc(CCC(=O)N[C@@H](CCC(=O)O)C(=O)O)ccc1[O-])Cc1cc(CCC(=O)NC(P(=O)(O)O)P(=O)(O)O)ccc1[O-].[68Ga+3] [[^68Ga]1f]
Data value: 0.13 ± 0.01 % dose/g
//
Molecule: C[C@H](NC(=O)CCc1ccc([O-])c(CN(CCN(CC(=O)[O-])Cc2cc(CCC(=O)NC(P(=O)(O)O)P(=O)(O)O)ccc2[O-])CC(=O)[O-])c1)C(=O)O.[68Ga+3] [[^68Ga]1d]
Data value: 0.09 ± 0.02 % dose/g
//
Molecule: O=C([O-])CN(CCN(CC(=O)[O-])Cc1cc(CCC(=O)NC(P(=O)(O)O)P(=O)(O)O)ccc1[O-])Cc1cc(CCC(=O)O)ccc1[O-].[68Ga+3] [[^68Ga]1a]
Data value: 0.12 ± 0.03 % dose/g

Exercise: Which Biodistribution: Lung reading was recorded for the molecule O=C([O-])CN(CCN(CC(=O)[O-])Cc1cc(CCC(=O)NC(P(=O)(O)O)P(=O)(O)O)ccc1[O-])Cc1cc(CCC(=O)NC(P(=O)(O)O)P(=O)(O)O)ccc1[O-].[68Ga+3] [[^68Ga]2] ?
Key: 0.40 ± 0.05 % dose/g

Exercise: Can you share its Biodistribution: Lung? I mean this molecule: O=C([O-])CN(CCN(CC(=O)[O-])Cc1cc(CCC(=O)NC(P(=O)(O)O)P(=O)(O)O)ccc1[O-])Cc1cc(CCC(=O)NCCCNC(=O)CCc2ccc(O)c(CN(CCN(CC(=O)O)Cc3cc(CCC(=O)NC(P(=O)(O)O)P(=O)(O)O)ccc3O)CC(=O)O)c2)ccc1[O-].[68Ga+3] [[^68Ga]3]
Key: 34.8 ± 1.90 % dose/g

---

Test: In vivo biodistribution in mice
Parameters: species or system normal CD-1 male mice
Conditions: iv, 2 min post injection
Description: Biodistribution experiments were performed by intravenously administering ^68Ga labeled 1a-h, 2, 3, BPAMD, and [^18F]NaF into normal, healthy male CD-1 mice (25-30 g). The injection activity was 20-30 μCi/animal. […] Organs of interest were harvested, weighed, and counts of radioactivity were measured by a gamma counter. The biodistribution of each sample was calculated as a percentage of the injected dose per gram of wet tissue weight (% ID/g). […]
Reported metric: Biodistribution: Heart (% dose/g)
Numeric answer only, unit % dose/g assumed.

Compound: [18F-].[Na+] [[^18F]NaF, reference compound]
Data value: 2.80
--
Compound: O=C([O-])CN(CCN(CC(=O)[O-])Cc1cc(CCC(=O)NC(P(=O)(O)O)P(=O)(O)O)ccc1[O-])Cc1cc(CCC(=O)NCCNC(=O)CN2CCN(CC(=O)O)CCN(CC(=O)O)CCN(CC(=O)O)CC2)ccc1[O-].[68Ga+3] [[^68Ga]1h]
Data value: 3.10
--
Compound: O=C([O-])CN(CCN(CC(=O)[O-])Cc1cc(CCC(=O)NC(P(=O)(O)O)P(=O)(O)O)ccc1[O-])Cc1cc(CCC(=O)NCCCNC(=O)CCc2ccc(O)c(CN(CCN(CC(=O)O)Cc3cc(CCC(=O)NC(P(=O)(O)O)P(=O)(O)O)ccc3O)CC(=O)O)c2)ccc1[O-].[68Ga+3] [[^68Ga]3]
Data value: 3.45

Exercise: Query (compound): O=C(O)CN1CCN(CC(=O)O)CCN(CC(=O)NC(P(=O)(O)O)P(=O)(O)O)CCN(CC(=O)O)CC1.[68Ga] [[^68Ga]BPAMD, reference compound] ; field requested: Biodistribution: Heart
Key: 2.74

Exercise: Given C[C@H](NC(=O)CCc1ccc([O-])c(CN(CCN(CC(=O)[O-])Cc2cc(CCC(=O)NC(P(=O)(O)O)P(=O)(O)O)ccc2[O-])CC(=O)[O-])c1)C(=O)O.[68Ga+3] [[^68Ga]1d] , state its recorded Biodistribution: Heart.
Key: 2.99

Exercise: So what's the measured Biodistribution: Heart for this one? O=C([O-])CN(CCN(CC(=O)[O-])Cc1cc(CCC(=O)N[C@@H](CCC(=O)O)C(=O)O)ccc1[O-])Cc1cc(CCC(=O)NC(P(=O)(O)O)P(=O)(O)O)ccc1[O-].[68Ga+3] [[^68Ga]1f]
Key: 3.53

Exercise: Item under review: O=C([O-])CN(CCN(CC(=O)[O-])Cc1cc(CCC(=O)NC(P(=O)(O)O)P(=O)(O)O)ccc1[O-])Cc1cc(CCC(=O)NC2C(O)OC(CO)C(O)C2O)ccc1[O-].[68Ga+3] (centres unmarked) [[^68Ga]1b] . Reported Biodistribution: Heart?
Key: 3.01

Exercise: Item under review: O=C([O-])CN(CCN(CC(=O)[O-])Cc1cc(CCC(=O)NC(P(=O)(O)O)P(=O)(O)O)ccc1[O-])Cc1cc(CCC(=O)O)ccc1[O-].[68Ga+3] [[^68Ga]1a] . Reported Biodistribution: Heart?
Key: 3.28

Origin of values: patent US10253052B2
